Test system: α7 integrin (LacZ reporter in α7βgal+/− myoblasts)
Experiment: Myoblast α7+/LacZ integrin FDG assay (Burkin assay in myoblasts, 96-well)
Assay type: cell-based, mouse
Conditions: 10 uM; SU9516 analogs, 96-well, N=3-6
Assay metric: Burkin Assay in Myoblasts, value relative to DMSO
// no unit string in output, number only

stdin: Dear colleague, I am looking for the recorded Burkin Assay in Myoblasts, value relative to DMSO of the following molecule: COc1cc(OC)c(/C=C2/C(=O)Nc3ccccc32)c(OC)c1
stdout: 0.214

stdin: Dear colleague, I am looking for the recorded Burkin Assay in Myoblasts, value relative to DMSO of the following molecule: Cc1[nH]c(C=C2C(=O)Nc3ccccc32)c(C)c1CCC(=O)O
stdout: 0.8662

stdin: Reported Burkin Assay in Myoblasts, value relative to DMSO for Cc1ccc2c(c1)/C(=C/c1ccccc1)C(=O)N2 : what is it?
stdout: 1.073
